Experiment: NCI Yeast Anticancer Drug Screen. Data for the rad50 strain (AID 155);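 also: 0% = growth of vehicle-only cultures of the same strain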
Conditions: S. cerevisiae rad50 strain growth inhibition; at 50.0 µM; active compounds read high
Procedure: Growth inhibition of yeast strains with defined genetic alterations is measured as a screen for potential anti-cancer activity. Selected strains with alterations in DNA damage repair or cell cycle control were exposed to compounds and growth inhibition was measured relative to vehicle treated controls. The strain used in this assay is rad50
Compounds without any hit were thinned out: in the full panel of roughly 79,000, 15% have a hit.
reportedEndpoint: growth inhibition (%)
Give the number; % is assumed, so skip it.

query: For the compound shown here, COc1cc2c(cc1OC)-c1c(C)c3ccc(OC)c(NCCO)c3c[n+]1CC2 , give the reported growth inhibition.
result: -43.2

query: Give the measured growth inhibition of CC(C)C1NC(C(=O)O)C(C)(C)S1 (stereo not given) .
result: 1.75

query: Report growth inhibition for CN(C)c1ccc(/[N+]([O-])=C/c2cccc3ccccc23)cc1 please.
result: 3.05

query: For COc1ccc(C(c2ccc(N(Cc3ccccc3)Cc3ccccc3)cc2NC(C)=O)c2ccc(N(Cc3ccccc3)Cc3ccccc3)cc2NC(C)=O)cc1OC , what is its reported growth inhibition?
result: 5.75

query: Which growth inhibition value belongs to CN1CCCC2C3=CC=C4CC(O)CCC4(C)C3CCC21C (stereo not given) ?
result: 60.4
